Listed below: half-life values for each entry.
procedure_summary: Tissue distribution after single oral SZ-A (40 mg/kg) in SD rats, plasma and 12 tissues
Format: in vivo
test_conditions: Sprague-Dawley, rat, muscle (thigh skeletal muscle), Muscle, n=5

The cases that follow already have their half-life on record.
[
  {
    "structure_notation": "OC[C@H]1NC[C@@H](O)[C@@H]1O",
    "half-life": "929 min"
  },
  {
    "structure_notation": "OC[C@H]1NCC[C@@H](O)[C@@H]1O",
    "half-life": "40.8 min"
  }
]

# next molecule below
input: Return reported half-life; argument: OC[C@H]1NC[C@H](O)[C@@H](O)[C@@H]1O
output: 45.6 min

###

procedure_summary: Pharmacokinetic study: plasma levels after oral SZ-A in SD rats (LC-MS/MS, DAS 3.2.8)
Format: in vivo
test_conditions: both sexes, rat, plasma, oral SZ-A 25 mg/kg, n=8
value_kind: half-life (h)
Express your answer in h, writing the number without its unit.

The cases that follow already have their half-life on record.
[
  {
    "structure_notation": "OC[C@H]1NCC[C@@H](O)[C@@H]1O",
    "u": "h",
    "half-life": 1.16
  },
  {
    "structure_notation": "OC[C@H]1NC[C@@H](O)[C@@H]1O",
    "u": "h",
    "half-life": 1.16
  }
]

# next molecule below
input: Return reported half-life; argument: OC[C@H]1NC[C@H](O)[C@@H](O)[C@@H]1O
output: 1.02

###

procedure_summary: Tissue distribution after single oral SZ-A (40 mg/kg) in SD rats, plasma and 12 tissues
Type: in vivo
test_conditions: Sprague-Dawley, rat, Brown adipose tissue, n=5, read-out: AUC(0-t)
value_kind: AUC(0-t) (ng·h/mL)
Express your answer in ng·h/mL, writing the number without its unit.

The cases that follow already have their AUC(0-t) on record.
[
  {
    "structure_notation": "OC[C@H]1NC[C@@H](O)[C@@H]1O",
    "AUC(0-t), ng·h/mL": 716
  },
  {
    "structure_notation": "OC[C@H]1NCC[C@@H](O)[C@@H]1O",
    "AUC(0-t), ng·h/mL": 1480
  }
]

input: Return reported AUC(0-t); argument: OC[C@H]1NC[C@H](O)[C@@H](O)[C@@H]1O
output: 3750

###

Listed below: Cmax values for each entry.
procedure_summary: Tissue distribution after single oral SZ-A (40 mg/kg) in SD rats, plasma and 12 tissues
Format: in vivo
test_conditions: rat, Subcutaneous adipose tissue, n=5

The cases that follow already have their Cmax on record.
[
  {
    "molecule": "OC[C@H]1NC[C@H](O)[C@@H](O)[C@@H]1O [DNJ, 1-deoxynojirimycin]",
    "Cmax": "577 ng/mL"
  },
  {
    "molecule": "OC[C@H]1NC[C@@H](O)[C@@H]1O [DAB, 1,4-dideoxy-1,4-imino-D-arabinitol]",
    "Cmax": "112 ng/mL"
  }
]

input: Return reported Cmax; argument: OC[C@H]1NCC[C@@H](O)[C@@H]1O [FA, fagomine]
output: 102 ng/mL

###

procedure_summary: Tissue distribution after single oral SZ-A (40 mg/kg) in SD rats, plasma and 12 tissues
Type: in vivo
test_conditions: Sprague-Dawley, rat, Pancreas, n=5
value_kind: Cmax (ng/mL)
Express your answer in ng/mL, writing the number without its unit.

The cases that follow already have their Cmax on record.
[
  {
    "structure_notation": "OC[C@H]1NC[C@@H](O)[C@@H]1O",
    "u": "ng/mL",
    "Cmax": 122
  },
  {
    "structure_notation": "OC[C@H]1NC[C@H](O)[C@@H](O)[C@@H]1O",
    "u": "ng/mL",
    "Cmax": 386
  }
]

# next compound below
input: Return reported Cmax; argument: OC[C@H]1NCC[C@@H](O)[C@@H]1O
output: 96.9

###

procedure_summary: Tissue distribution after single oral SZ-A (40 mg/kg) in SD rats, plasma and 12 tissues
Type: in vivo
test_conditions: Sprague-Dawley, rat, Plasma, n=5
value_kind: Cmax
Report as: number unit

[
  {
    "structure_notation": "OC[C@H]1NC[C@H](O)[C@@H](O)[C@@H]1O",
    "Cmax": "5830 ng/mL"
  },
  {
    "structure_notation": "OC[C@H]1NCC[C@@H](O)[C@@H]1O",
    "Cmax": "692 ng/mL"
  }
]

input: Return reported Cmax; argument: OC[C@H]1NC[C@@H](O)[C@@H]1O
output: 973 ng/mL

###

procedure_summary: Pharmacokinetic study: plasma levels after oral SZ-A in SD rats (LC-MS/MS, DAS 3.2.8)
Format: in vivo
test_conditions: both sexes, rat, plasma, oral SZ-A 200 mg/kg, n=8
value_kind: half-life (h)
Express your answer in h, writing the number without its unit.

[
  {
    "compound": "OC[C@H]1NC[C@H](O)[C@@H](O)[C@@H]1O [DNJ, 1-deoxynojirimycin]",
    "half-life / h": 3.25
  },
  {
    "compound": "OC[C@H]1NCC[C@@H](O)[C@@H]1O [FA, fagomine]",
    "half-life / h": 1.08
  }
]

# next compound below
input: Return reported half-life; argument: OC[C@H]1NC[C@@H](O)[C@@H]1O [DAB, 1,4-dideoxy-1,4-imino-D-arabinitol]
output: 1.08

###

procedure_summary: Tissue distribution after single oral SZ-A (40 mg/kg) in SD rats, plasma and 12 tissues
Format: in vivo
test_conditions: rat, Spleen, n=5
value_kind: half-life (min)
Express your answer in min, writing the number without its unit.

The cases that follow already have their half-life on record.
[
  {
    "structure_notation": "OC[C@H]1NC[C@H](O)[C@@H](O)[C@@H]1O",
    "value_measured": 37.2
  },
  {
    "structure_notation": "OC[C@H]1NCC[C@@H](O)[C@@H]1O",
    "value_measured": 42
  }
]

input: Return reported half-life; argument: OC[C@H]1NC[C@@H](O)[C@@H]1O
output: 45

###

procedure_summary: Pharmacokinetic study: plasma levels after oral SZ-A in SD rats (LC-MS/MS, DAS 3.2.8)
Format: in vivo
test_conditions: both sexes, SD, rat, plasma, po, 200 mg/kg, plasma, oral SZ-A 25, 50 and 200 mg/kg, read-out: time to maximum plasma concentration (Tmax), all dose groups
value_kind: Tmax

The cases that follow already have their Tmax on record.
[
  {
    "structure_notation": "OC[C@H]1NCC[C@@H](O)[C@@H]1O",
    "Tmax": "≤ 52.8 min"
  },
  {
    "structure_notation": "OC[C@H]1NC[C@@H](O)[C@@H]1O",
    "Tmax": "≤ 52.8 min"
  }
]

input: Return reported Tmax; argument: OC[C@H]1NC[C@H](O)[C@@H](O)[C@@H]1O
output: ≤ 52.8 min

###

procedure_summary: Tissue distribution after single oral SZ-A (40 mg/kg) in SD rats, plasma and 12 tissues
Format: in vivo
test_conditions: rat, Brown adipose tissue, n=5
value_kind: Cmax
Report as: number unit

[
  {
    "structure_notation": "OC[C@H]1NC[C@@H](O)[C@@H]1O",
    "Cmax": "269 ng/mL"
  },
  {
    "structure_notation": "OC[C@H]1NC[C@H](O)[C@@H](O)[C@@H]1O",
    "Cmax": "1420 ng/mL"
  }
]

# next compound below
input: Return reported Cmax; argument: OC[C@H]1NCC[C@@H](O)[C@@H]1O
output: 463 ng/mL
